Tested on: adherent PBMNC
Assay: Cell counts and viability of plastic adherent cells cultured with non-cytokine additives in polystyrene plates
Type: cell-based, human
Settings: Day 7, without GM-CSF
Form field: TOTAL CELLS (one value per entry).
Respond numerically; units are E + 05 and should not be typed.

Solved entries (count: 2):
COMPOUND	TOTAL CELLS, E + 05
CNc1ccc2oc(CC3OC4(CCC3C)OC(C(C)C(=O)c3ccc[nH]3)C(C)CC4C)nc2c1C(=O)O (centres unmarked)	1.54
C=C1CCC(O)CC1=CC=C1CCCC2(C)C1CCC2C(C)CCCC(C)C (centres unmarked)	1.82

Which TOTAL CELLS is listed for Cc1c(C)c2c(c(C)c1O)CCC(C)(CCCC(C)CCCC(C)CCCC(C)C)O2 (mixture of isomers) ?
1.75

What measured TOTAL CELLS goes with CCCCCCCCCCCCCC(=O)O[C@@H]1[C@@H](C)[C@@]2(O)[C@@H](C=C(CO)C[C@]3(O)C(=O)C(C)=C[C@@H]23)[C@@H]2C(C)(C)[C@]12OC(C)=O [PMA, Phorbol Myristate Acetate] ?
1.51

GET /values?readout=TOTAL CELLS&item= CCCCC/C=C\C/C=C\CCCCCCCC(=O)O
1.19

Tell me the measured TOTAL CELLS of Nc1ncnc2c1ncn2[C@@H]1O[C@@H]2COP(=O)(O)O[C@H]2[C@H]1O [cAMP, Cyclic Adenosine Monophosphate] , please.
2.08

For the compound CCCCC[C@H](O)/C=C/[C@H]1[C@H](O)CC(=O)[C@@H]1CCCCCCC(=O)O [PGE, Prostaglandin E1] , what TOTAL CELLS is on record?
2.91

May I ask what TOTAL CELLS has been recorded for CC1=C(/C=C/C(C)=C/C=C/C(C)=C/C(=O)O)C(C)(C)CCC1 ?
1.66

// returns reported TOTAL CELLS for input [F-].[Na+] [NaF, Sodium Fluoride]
2.18

Quick check: TOTAL CELLS of Cn1c(=O)c2[nH]cnc2n(C)c1=O ?
1.81

# query: TOTAL CELLS of entry CCCC(=O)Nc1ncnc2c1ncn2[C@@H]1O[C@@H]2COP(=O)(O)O[C@H]2[C@H]1OC(=O)CCC
2.59
